system: CK1δ (Homo sapiens (Human), UniProt P48730)
Sequence (P48730 whole entry): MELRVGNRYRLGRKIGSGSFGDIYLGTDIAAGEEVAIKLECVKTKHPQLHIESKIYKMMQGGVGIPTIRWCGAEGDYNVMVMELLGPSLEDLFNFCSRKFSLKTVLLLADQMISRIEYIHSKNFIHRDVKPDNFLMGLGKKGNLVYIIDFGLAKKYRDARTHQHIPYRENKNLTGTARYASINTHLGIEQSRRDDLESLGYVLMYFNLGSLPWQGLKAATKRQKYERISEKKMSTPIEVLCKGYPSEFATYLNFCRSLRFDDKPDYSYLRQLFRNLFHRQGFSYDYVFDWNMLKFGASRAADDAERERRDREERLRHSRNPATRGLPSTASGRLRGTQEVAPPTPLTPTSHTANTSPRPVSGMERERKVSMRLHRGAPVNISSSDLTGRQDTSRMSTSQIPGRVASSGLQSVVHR
Recorded pIC50 by entry
Kindly note that pIC50 refers to -log10 of the concentration in mol/L and answer with the value alone.

In [3]: df
Out[3]:
                                   molecule                                    system  meas_value
0  Cn1nc(-c2ccc(F)cc2)c(-c2ccc3nc(NC(=O)c4ccnc(F)c4)cn3n2)c1N1CCN(C[C@H](O)C(F)(F)F)CC1 [Compound 128]  CK1δ (Homo sapiens (Human), UniProt P48730)        8.82
1  Cn1nc(-c2ccc(F)cc2)c(-c2ccc3nc(NC(=O)c4ccnc(N5CCOCC5)c4)cn3n2)c1C1CCOCC1 [Compound 198]  CK1δ (Homo sapiens (Human), UniProt P48730)        9.30
2  Cn1cc(-c2ccc3nc(NC(=O)c4ccnc(N5CCOCC5)c4)cn3n2)c(-c2ccc(F)cc2)n1 [Compound 69]  CK1δ (Homo sapiens (Human), UniProt P48730)        8.64
3  Cn1cc(-c2ccc3nc(NC(=O)c4cc(F)cc(F)c4)cn3n2)c(-c2ccc(F)cc2)n1 [Compound 43]  CK1δ (Homo sapiens (Human), UniProt P48730)        8.32
4  Cn1cc(-c2ccc3nc(NC(=O)c4ccncc4)cn3n2)c(-c2ccc(F)cc2)n1 [Compound 1]  CK1δ (Homo sapiens (Human), UniProt P48730)        8.28
5  CCc1ccc(C(=O)Nc2cn3nc(-c4cn(C)nc4-c4ccc(F)cc4)ccc3n2)nc1 [Compound 76]  CK1δ (Homo sapiens (Human), UniProt P48730)        7.92

Now turn to the next molecule.
Query: Recorded pIC50 for Cn1nc(-c2ccc(F)cc2)c(-c2ccc3nc(NC(=O)c4ccnc(N)c4)cn3n2)c1N1CCNCC1 [Compound 140] , please?
Response: 8.60

---

Recorded IC50 by entry
system: CK1ε (Homo sapiens (Human), UniProt P49674)
Sequence (P49674 whole entry): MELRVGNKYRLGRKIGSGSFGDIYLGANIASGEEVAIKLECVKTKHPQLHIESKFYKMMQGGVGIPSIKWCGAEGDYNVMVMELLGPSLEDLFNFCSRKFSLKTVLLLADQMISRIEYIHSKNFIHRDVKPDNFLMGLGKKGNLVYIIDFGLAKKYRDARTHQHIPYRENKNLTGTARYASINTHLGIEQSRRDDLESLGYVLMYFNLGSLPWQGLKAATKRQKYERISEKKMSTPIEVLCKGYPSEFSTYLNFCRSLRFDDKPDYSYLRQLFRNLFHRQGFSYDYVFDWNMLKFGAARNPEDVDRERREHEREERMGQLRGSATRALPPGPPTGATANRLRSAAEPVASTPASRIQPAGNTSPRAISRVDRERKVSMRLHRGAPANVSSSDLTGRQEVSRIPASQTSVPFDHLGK
test: CK1ε kinase assay (Caliper LabChip, fluoresceinated peptide substrate)
Assay type: biochemical
cond: 200 pM CK1ε, 50 μM ATP, 1.5 μM peptide substrate, 22 hours room temperature
Structures can show the parent of a compound that is named as a salt.
I only need the number, in µM, no unit after it.

Query: Recorded IC50 for Cn1cc(-c2ccc3nc(NC(=O)c4nccs4)cn3n2)c(-c2ccc(F)cc2)n1 , please?
Response: 0.116

Query: Please do the same for Cn1nc(-c2ccc(F)cc2)c(-c2ccc3nc(NC(=O)c4ccnc(N5CCOCC5)c4)cn3n2)c1N1CCN(CCC(F)(F)F)CC1 as well.
Response: 0.035

Query: Please do the same for Cn1cc(-c2ccc3nc(NC(=O)c4ccncn4)cn3n2)c(-c2ccc(F)cc2)n1 as well.
Response: 0.0434

Query: Please do the same for CCc1ccc(C(=O)Nc2cn3nc(-c4cn(C)nc4-c4ccc(F)cc4)ccc3n2)nc1 as well.
Response: 0.064

Query: Please do the same for Cc1c(NC(=O)c2ccccc2)nc2ccc(-c3cn(C)nc3-c3ccc(F)cc3)nn12 [Compound 195, TFA] as well.
Response: 0.137

Query: Please do the same for Cn1cc(-c2ccc3nc(NC(=O)Nc4ccccc4)cn3n2)c(-c2ccc(F)cc2)n1 as well.
Response: 0.114

Query: Please do the same for Cn1cc(-c2ccc3nc(NC(=O)c4ccc(C(F)(F)F)cn4)cn3n2)c(-c2ccc(F)cc2)n1 as well.
Response: 0.232

Query: Please do the same for Cn1cc(-c2ccc3nc(NC(=O)c4ccc(OCC(F)(F)F)nc4)cn3n2)c(-c2ccc(F)cc2)n1 as well.
Response: 0.0281

Query: Please do the same for Cn1nc(-c2ccc(F)cc2)c(-c2ccc3nc(NC(=O)c4ccnc(N)c4)cn3n2)c1N1CCN(CCC(F)(F)F)CC1 as well.
Response: 0.032
